Test: Lipophilicity, logD of the compound at pH 7.4
Assay type: physicochemical
Settings: buffer
readout-name: logD
Give a plain numeric answer without units written out.

The recorded logD for `Clc1ccc(Nc2nc(C(Cl)(Cl)Cl)nc3ccccc23)c(Cl)c1` is 3.6

====

Assay: Selectivity index, ratio of CC50 for human HepG2 cells to EC50 for Plasmodium falciparum K1
Format: toxicity
Conditions: read-out: Ratio CC50/EC50
readout-name: selectivity ratio
Give a plain numeric answer without units written out.

The recorded selectivity ratio for C[C@H]1c2cccc(O)c2C(=O)C2=C(O)[C@]3(O)C(=O)C(C(N)=O)=C(O)[C@@H](N(C)C)[C@@H]3[C@@H](O)[C@@H]21 [DOXYCYCLINE ANHYDROUS] is 4

The recorded selectivity ratio for `CC(C)(C)OC(=O)NCCOCCOCCNCc1ccc2c(Nc3ccc(Cl)cc3Cl)nc(C(Cl)(Cl)Cl)nc2c1` is 32

The recorded selectivity ratio for `CC(C)(C)OC(=O)NCCCOCCOCCOCCCNCc1ccc2c(Nc3ccc(Cl)cc3Cl)nc(C(Cl)(Cl)Cl)nc2c1` is 21

The recorded selectivity ratio for CCN(CC)CCCC(C)Nc1ccnc2cc(Cl)ccc12 (centres undefined) is 60

====

Test system: Plasmodium falciparum
Assay: Antiplasmodial activity against Plasmodium falciparum K1 infected in erythrocytes assessed as reduction in parasite DNA after 72 hrs by SYBR Green I fluorescence based assay
Type: functional, organism-based
Conditions: K1, Erythrocyte
readout-name: pEC50
The scale used: pEC50 is minus the common logarithm of the concentration in molar units.

See these solved cases before continuing.
>>> numeric_readout("C[C@H]1c2cccc(O)c2C(=O)C2=C(O)[C@]3(O)C(=O)C(C(N)=O)=C(O)[C@@H](N(C)C)[C@@H]3[C@@H](O)[C@@H]21 [DOXYCYCLINE ANHYDROUS]")
5.30
>>> numeric_readout("CCN(CC)CCCC(C)Nc1ccnc2cc(Cl)ccc12 (stereo not given) [CHLOROQUINE]")
6.30
>>> numeric_readout("CC(C)(C)OC(=O)NCCOCCOCCNCc1ccc2c(Nc3ccc(Cl)cc3Cl)nc(C(Cl)(Cl)Cl)nc2c1")
6.22
>>> numeric_readout("CC(C)(C)OC(=O)NCCCOCCOCCOCCCNCc1ccc2c(Nc3ccc(Cl)cc3Cl)nc(C(Cl)(Cl)Cl)nc2c1")
6.82

As a next step, examine the compound that follows.
The recorded pEC50 for C[C@H]1[C@H](OC(=O)CCC(=O)O)O[C@@H]2O[C@@]3(C)CC[C@H]4[C@H](C)CC[C@@H]1[C@@]24OO3 [ARTESUNATE] is 8.40

====

Experiment: Half-life in mouse plasma
Type: ADME, cell-free
readout-name: half-life

The recorded half-life for `Clc1ccc(Nc2nc(C(Cl)(Cl)Cl)nc3ccccc23)c(Cl)c1` is > 6 h
